These data points were gathered from patent US6677331B2.

assayed_target: UniProt P31428
Sequence (P31428 17-384): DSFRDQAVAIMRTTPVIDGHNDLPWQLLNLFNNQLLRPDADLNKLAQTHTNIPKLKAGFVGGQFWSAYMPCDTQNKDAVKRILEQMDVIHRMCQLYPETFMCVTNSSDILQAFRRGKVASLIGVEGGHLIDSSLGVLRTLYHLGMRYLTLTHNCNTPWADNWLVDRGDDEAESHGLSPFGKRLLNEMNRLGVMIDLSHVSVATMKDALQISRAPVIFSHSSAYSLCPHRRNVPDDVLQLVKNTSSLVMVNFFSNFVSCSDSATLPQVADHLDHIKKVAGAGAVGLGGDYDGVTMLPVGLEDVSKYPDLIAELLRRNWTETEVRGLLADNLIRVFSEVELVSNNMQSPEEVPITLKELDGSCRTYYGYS
test_details: Test 2: stability against DHP-I (mouse)
test_settings: partly purified Mouse DHP-I; 100 μg (titer)/ml; 37° C., 3 hours; HPLC
I'd appreciate it if you could supply residual amounts (%) after 3 hours values for the items below.
// return numeric value only (unit: %, not printed)

Query :: Request the reported residual amounts (%) after 3 hours associated with C[C@@H](O)[C@H]1C(=O)N2C(C(=O)O)=C(SCCN=CN)C[C@H]12 [Compound A, imipenem, reference compound]
Result :: 14

Query :: Request the reported residual amounts (%) after 3 hours associated with C[C@@H](O)[C@H]1C(=O)N2C(C(=O)[O-])=C(c3cn4cnc([S+](C)[O-])c4s3)[C@H](C)[C@H]12.[Na+] (some centres unmarked)
Result :: 11

Query :: Request the reported residual amounts (%) after 3 hours associated with CCC(=O)c1ncn2cc(C3=C(C(=O)[O-])N4C(=O)[C@H]([C@@H](C)O)[C@H]4C3)sc12.[Na+]
Result :: 1.2

Query :: Request the reported residual amounts (%) after 3 hours associated with C[C@@H](O)[C@H]1C(=O)N2C(C(=O)[O-])=C(c3cn4cnc(S(C)(=O)=O)c4s3)[C@H](C)[C@H]12.[Na+]
Result :: 1.5

Query :: Request the reported residual amounts (%) after 3 hours associated with CC(=O)c1nc(C)n2cc(C3=C(C(=O)[O-])N4C(=O)[C@H]([C@@H](C)O)[C@H]4[C@H]3C)sc12.[Na+]
Result :: 45

Query :: Request the reported residual amounts (%) after 3 hours associated with C[C@@H](O)[C@H]1C(=O)N2C(C(=O)O)=C(S[C@@H]3CN[C@H](C(=O)N(C)C)C3)[C@H](C)[C@H]12 [Compound C, meropenem, reference compound]
Result :: 8.5

* * *

I'd appreciate it if you could supply MIC values for the items below.
Test system: S. epidermidis ATCC14990
test_details: Test 1: Anti-Microbial Activities (MIC)
Format: cell-based
test_settings: Staphylococcus epidermidis, Sensitivity Disk agar-N+5% Horse blood, inoculants 10^6 CFU/ml, read-out: minimum inhibiting concentrations (MIC)

Query :: Request the reported MIC associated with C[C@@H](O)[C@H]1C(=O)N2C(C(=O)O)=C(SCCN=CN)C[C@H]12 [Compound A, imipenem, reference compound]
Result :: < 0.025 µg/mL

Query :: Request the reported MIC associated with C[C@@H](O)[C@H]1C(=O)N2C(C(=O)[O-])=C(c3cn4cnc(C(=O)CO)c4s3)[C@H](C)[C@H]12.[Na+] [Example 71]
Result :: < 0.025 µg/mL

Query :: Request the reported MIC associated with C[C@@H](O)[C@H]1C(=O)N2C(C(=O)[O-])=C(c3cn4cnc(S(=O)(=O)N(C)C)c4s3)[C@H](C)[C@H]12.[Na+] [Example 88]
Result :: < 0.025 µg/mL
